System: IGR-1 (Melanoma)
Assay: combination Emax (second highest fraction inhibited in the dose matrix, 72 h); higher = more inhibition; extreme values may be limits of the assay
Measurement Name: combination Emax

>  <Molecule>
COc1nnc2ccc(N3CCC(c4ccc(OCCN5CCN(C)C(=O)[C@H]5C)cc4)CC3)nn12 [AZD5153] + CCN(CCO)CCCOc1ccc2c(Nc3cc(CC(=O)Nc4cccc(F)c4)[nH]n3)ncnc2c1 [AZD2811] (first compound max 1 µM, 7x7, partner max 1 µM)

>  <Measurement Name>
combination Emax

>  <Obs Value>
0.522

$$$$
>  <Molecule>
CC(=O)Nc1cccc(-n2c(=O)n(C3CC3)c(=O)c3c(Nc4ccc(I)cc4F)n(C)c(=O)c(C)c32)c1 [Trametinib] + Cc1nc(-c2cn3c(n2)-c2ccc(-c4cnn(C(C)(C)C(N)=O)c4)cc2OCC3)n(C(C)C)n1 [Taselisib] (first compound max 1 µM, 7x7, partner max 10 µM)

>  <Measurement Name>
combination Emax

>  <Obs Value>
0.759

$$$$
>  <Molecule>
CN(C)CCCOc1ccc(-c2ccc3ncc4c(c3c2)n(C2CCOCC2)c(=O)n4C)cn1 [AZD0156] + CCN(CCO)CCCOc1ccc2c(Nc3cc(CC(=O)Nc4cccc(F)c4)[nH]n3)ncnc2c1 [AZD2811] (first compound max 1 µM, 7x7, partner max 1 µM)

>  <Measurement Name>
combination Emax

>  <Obs Value>
0.135

$$$$
>  <Molecule>
COc1cccc2c1C(=O)c1c(O)c3c(c(O)c1C2=O)C[C@@](O)(C(=O)CO)C[C@@H]3O[C@H]1C[C@H](N)[C@H](O)[C@H](C)O1 [Doxorubicin] + Cc1cc2ncnn2cc1Nc1ncc2c(n1)n(C1CCOCC1)c(=O)n2C [AZD7648] (first compound max 1 µM, 7x7, partner max 10 µM)

>  <Measurement Name>
combination Emax

>  <Obs Value>
0.697

$$$$
>  <Molecule>
COc1cccc(OCCCN)c1-c1cc(Nc2cnc(C#N)cn2)n[nH]1 [Prexasertib] + Cc1cc2ncnn2cc1Nc1ncc2c(n1)n(C1CCOCC1)c(=O)n2C [AZD7648] (first compound max 1 µM, 7x7, partner max 10 µM)

>  <Measurement Name>
combination Emax

>  <Obs Value>
0.508

$$$$
>  <Molecule>
Cc1c2c(nn1C)CSCc1cc(n(C)n1)CSc1cc(c3ccccc3c1)OCCCc1c(C(=O)O)n(C)c3c-2c(Cl)ccc13 [AZD5991] + CCN(CCO)CCCOc1ccc2c(Nc3cc(CC(=O)Nc4cccc(F)c4)[nH]n3)ncnc2c1 [AZD2811] (first compound max 1 µM, 7x7, partner max 1 µM)

>  <Measurement Name>
combination Emax

>  <Obs Value>
0.338

$$$$

----------
Tested on: MDA-MB-231 (Breast Carcinoma)
Assay: combination Emax (second highest fraction inhibited in the dose matrix, 72 h); higher = more inhibition; extreme values may be limits of the assay
Please note: condition met applies when combination Emax is 0.7 or greater, and condition not met applies otherwise.

>  <Compound>
COc1nnc2ccc(N3CCC(c4ccc(OCCN5CCN(C)C(=O)[C@H]5C)cc4)CC3)nn12 [AZD5153] + Cc1c2c(nn1C)CSCc1cc(n(C)n1)CSc1cc(c3ccccc3c1)OCCCc1c(C(=O)O)n(C)c3c-2c(Cl)ccc13 [AZD5991] (first compound max 1 µM, 7x7, partner max 1 µM)

>  <Category Label>
condition not met

$$$$
>  <Compound>
COc1cccc(OCCCN)c1-c1cc(Nc2cnc(C#N)cn2)n[nH]1 [Prexasertib] + C=CCn1c(=O)c2cnc(Nc3ccc(N4CCN(C)CC4)cc3)nc2n1-c1cccc(C(C)(C)O)n1 [AZD1775] (first compound max 1 µM, partner max 1 µM)

>  <Category Label>
condition met

$$$$
>  <Compound>
CN(CCO)CC[C@H](CSc1ccccc1)Nc1ccc(S(=O)(=O)NC(=O)c2ccc(N3CCC([C@@H](O)c4ccccc4-c4ccc(Cl)cc4)CC3)cc2)cc1S(=O)(=O)C(F)(F)F [AZD4320] + Cn1cnc2c(F)c(Nc3ccc(Br)cc3Cl)c(C(=O)NOCCO)cc21 [Selumetinib] (first compound max 1 µM, 7x7, partner max 3 µM)

>  <Category Label>
condition met

$$$$
>  <Compound>
COc1nnc2ccc(N3CCC(c4ccc(OCCN5CCN(C)C(=O)[C@H]5C)cc4)CC3)nn12 [AZD5153] + CCN(CCO)CCCOc1ccc2c(Nc3cc(CC(=O)Nc4cccc(F)c4)[nH]n3)ncnc2c1 [AZD2811] (first compound max 1 µM, 7x7, partner max 1 µM)

>  <Category Label>
condition not met

$$$$
>  <Compound>
Cc1c2c(nn1C)CSCc1cc(n(C)n1)CSc1cc(c3ccccc3c1)OCCCc1c(C(=O)O)n(C)c3c-2c(Cl)ccc13 [AZD5991] + C1CN(CCC1(C(=O)N[C@@H](CCO)C2=CC=C(C=C2)Cl)N)C3=NC=NC4=C3C=CN4 [Capivasertib] (first compound max 1 µM, 7x7, partner max 3 µM)

>  <Category Label>
condition not met

$$$$
>  <Compound>
CC1(C)CCC(CN2CCN(c3ccc(C(=O)NS(=O)(=O)c4ccc(NCC5CCOCC5)c([N+](=O)[O-])c4)c(Oc4cnc5[nH]ccc5c4)c3)CC2)=C(c2ccc(Cl)cc2)C1 [Venetoclax] + C[C@@H](Nc1cc(F)cc(F)c1)c1cc(C(=O)N(C)C)cc2c(=O)cc(N3CCOCC3)oc12 [AZD8186] (first compound max 1 µM, 7x7, partner max 3 µM)

>  <Category Label>
condition not met

$$$$
>  <Compound>
N#Cc1cnc(Nc2cc(NC[C@H]3CNCCO3)c(C(F)(F)F)cn2)cn1 [SRA737] + Nc1ccn([C@@H]2O[C@H](CO)[C@@H](O)C2(F)F)c(=O)n1 [Gemcitabine] (first compound max 10 µM, 7x7, partner max 0.3 µM)

>  <Category Label>
condition met

$$$$

Provenance of the data: the supplement of paper PMC11061612
